Molecular target: Solute carrier organic anion transporter family member 1B1 (Homo sapiens, UniProt Q9Y6L6)
Sequence (Q9Y6L6 whole entry): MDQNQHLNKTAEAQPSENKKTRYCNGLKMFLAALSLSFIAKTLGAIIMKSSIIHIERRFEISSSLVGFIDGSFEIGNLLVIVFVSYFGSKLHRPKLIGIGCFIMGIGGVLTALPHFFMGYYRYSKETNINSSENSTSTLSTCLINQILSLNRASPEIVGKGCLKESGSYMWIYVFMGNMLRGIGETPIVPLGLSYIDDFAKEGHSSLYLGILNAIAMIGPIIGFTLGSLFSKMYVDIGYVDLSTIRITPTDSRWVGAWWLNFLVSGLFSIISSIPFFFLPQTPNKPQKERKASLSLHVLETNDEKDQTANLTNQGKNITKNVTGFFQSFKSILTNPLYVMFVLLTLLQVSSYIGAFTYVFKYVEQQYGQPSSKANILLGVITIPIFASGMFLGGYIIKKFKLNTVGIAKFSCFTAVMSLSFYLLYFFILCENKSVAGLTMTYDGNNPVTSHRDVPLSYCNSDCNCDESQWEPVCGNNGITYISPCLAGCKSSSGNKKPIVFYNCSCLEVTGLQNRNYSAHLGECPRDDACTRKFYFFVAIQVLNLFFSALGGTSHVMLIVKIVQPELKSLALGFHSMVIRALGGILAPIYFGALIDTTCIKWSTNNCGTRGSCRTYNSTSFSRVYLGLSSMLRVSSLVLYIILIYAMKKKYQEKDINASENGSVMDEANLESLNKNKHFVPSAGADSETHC
Settings: chinese hamster, cho, 10 µM
Mark rule met for reported residual activity of 40% or greater; mark rule not met for anything smaller.

## Task Reported residual activity reaches at least 40% for CCC(=O)OCC(=O)[C@@]1(OC(=O)CC)[C@@H](C)C[C@H]2[C@@H]3CCC4=CC(=O)C=C[C@]4(C)[C@@]3(Cl)[C@@H](O)C[C@@]21C [BECLOMETHASONE DIPROPIONATE] ?
## Result rule met

## Task Reported residual activity reaches at least 40% for O=C1OCCN1/N=C/c1ccc([N+](=O)[O-])o1 ?
## Result rule met

## Task Reported residual activity reaches at least 40% for CC[C@@H](C(=O)[C@@H](C)[C@@H](O)[C@H](C)CCc1ccc(C)c(O)c1C(=O)[O-])[C@H]1O[C@](CC)([C@H]2CC[C@](O)(CC)[C@H](C)O2)C[C@@H]1C.[Na+] [LASALOCID A SODIUM] ?
## Result rule not met

## Task Reported residual activity reaches at least 40% for COC(=O)C[C@H]1C(C)(C)[C@@H](O)[C@@H]2CC3=C4CC(O)O[C@@H](c5ccoc5)[C@]4(C)CCC3[C@@]1(C)C2=O (stereo partly drawn) [3,16-DIDEOXYMEXICANOLIDE-3beta-DIOL] ?
## Result rule met

## Task Reported residual activity reaches at least 40% for C[C@@H]([C@H]1OC(C)(C)[C@@H](O)[C@H]1O)[C@@H]1CC[C@]2(C)C3=CC[C@H]4C(C)(C)C(=O)CC[C@]4(C)[C@H]3CC[C@@]12C ?
## Result rule met

---

Biological target: Solute carrier organic anion transporter family member 1B3 (Homo sapiens, UniProt Q9NPD5)
Sequence (Q9NPD5 whole entry): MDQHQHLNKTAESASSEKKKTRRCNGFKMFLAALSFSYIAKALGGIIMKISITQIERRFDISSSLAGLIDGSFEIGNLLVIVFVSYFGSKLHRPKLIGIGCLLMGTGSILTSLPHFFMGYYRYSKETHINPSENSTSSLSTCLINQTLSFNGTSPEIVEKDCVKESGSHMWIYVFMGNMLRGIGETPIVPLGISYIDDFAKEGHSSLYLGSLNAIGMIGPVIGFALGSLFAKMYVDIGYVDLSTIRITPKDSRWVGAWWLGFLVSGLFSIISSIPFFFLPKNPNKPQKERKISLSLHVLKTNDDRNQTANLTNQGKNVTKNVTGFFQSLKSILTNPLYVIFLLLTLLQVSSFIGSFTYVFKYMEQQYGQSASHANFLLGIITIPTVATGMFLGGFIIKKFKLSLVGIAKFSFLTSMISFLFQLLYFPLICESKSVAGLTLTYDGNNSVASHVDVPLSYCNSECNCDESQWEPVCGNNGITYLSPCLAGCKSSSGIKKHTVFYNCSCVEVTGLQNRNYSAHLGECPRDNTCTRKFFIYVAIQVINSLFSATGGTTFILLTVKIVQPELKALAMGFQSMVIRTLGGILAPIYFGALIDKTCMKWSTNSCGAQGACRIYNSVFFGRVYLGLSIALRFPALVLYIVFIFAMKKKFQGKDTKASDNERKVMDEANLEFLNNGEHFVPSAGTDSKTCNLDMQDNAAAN
Conditions: chinese hamster, cho, 10 µM
# strict inequality: residual activity < 80% yields label 1, everything else yields label 0

Examples with answers:
{"compound": "Cc1cc(O)ccc1Cl", "assay-target": "Solute carrier organic anion transporter family member 1B3 (Homo sapiens, UniProt Q9NPD5)", "group-label": "label 0"}
{"compound": "CCc1cccc(CC)c1N(COC)C(=O)CCl", "assay-target": "Solute carrier organic anion transporter family member 1B3 (Homo sapiens, UniProt Q9NPD5)", "group-label": "label 0"}
{"compound": "CC1(C)CC2C1CC[C@]1(CBr)CCC3C(CC(=O)O)C(=O)O[C@@]32C1 (some centres not stated)", "assay-target": "Solute carrier organic anion transporter family member 1B3 (Homo sapiens, UniProt Q9NPD5)", "group-label": "label 1"}
{"compound": "CC[C@@]1(O)C[C@H](O[C@H]2C[C@H](N(C)C)[C@H](O)[C@H](C)O2)c2c(cc3c(c2O)C(=O)c2c(O)cccc2C3=O)[C@H]1C(=O)OC.Cl [AKLAVINE HYDROCHLORIDE]", "assay-target": "Solute carrier organic anion transporter family member 1B3 (Homo sapiens, UniProt Q9NPD5)", "group-label": "label 0"}
{"compound": "CC(=O)Oc1cc(OC(C)=O)c2c(c1)O[C@H](c1ccc(OC(C)=O)c(OC(C)=O)c1)[C@H](OC(C)=O)C2 [EPICATECHIN PENTAACETATE]", "assay-target": "Solute carrier organic anion transporter family member 1B3 (Homo sapiens, UniProt Q9NPD5)", "group-label": "label 1"}

## Task Determine if CCC(=O)O[C@H]1CC[C@H]2[C@@H]3CCC4=CC(=O)CC[C@]4(C)[C@H]3CC[C@]12C [TESTOSTERONE PROPIONATE] shows residual activity strictly lower than 80%.
## Result label 0

## Task Determine if COc1cc(O)c(C)c(O)c1 [2,6-DIHYDROXY-4-METHOXYTOLUENE] shows residual activity strictly lower than 80%.
## Result label 0
